All figures here come from ChEMBL document CHEMBL1629465.

- Tested on: Aspergillus fumigatus
- method_description: Antimicrobial activity against Aspergillus fumigatus RCMB 002008 at 2.5 mg/ml by agar diffusion technique
- Type: functional
- conditions_used: read-out: DIZ
Recorded zone of inhibition at 2500 µg/mL for the following compounds

[
  {
    "molecular_string": "S=c1[nH]nc(-c2cccnc2)n1/N=C\\c1ccccc1OCCCOc1ccccc1/C=N\\n1c(-c2cccnc2)n[nH]c1=S",
    "units_label": "mm",
    "zone of inhibition at 2500 µg/mL": 0
  },
  {
    "molecular_string": "O=C(N[C@H](CO)[C@H](O)c1ccc([N+](=O)[O-])cc1)C(Cl)Cl",
    "units_label": "mm",
    "zone of inhibition at 2500 µg/mL": 10
  },
  {
    "molecular_string": "Nn1c(SCCSc2nnc(-c3cccnc3)n2N)nnc1-c1cccnc1",
    "units_label": "mm",
    "zone of inhibition at 2500 µg/mL": 0
  },
  {
    "molecular_string": "OC(COc1ccccc1/C=N\\n1c(-c2cccnc2)n[nH]c1=S)COc1ccccc1/C=N\\n1c(-c2cccnc2)n[nH]c1=S",
    "units_label": "mm",
    "zone of inhibition at 2500 µg/mL": 0
  },
  {
    "molecular_string": "S=c1[nH]nc(-c2cccnc2)n1/N=C\\c1ccccc1OCCCCOc1ccccc1/C=N\\n1c(-c2cccnc2)n[nH]c1=S",
    "units_label": "mm",
    "zone of inhibition at 2500 µg/mL": 0
  },
  {
    "molecular_string": "Oc1ccccc1/C=N\\n1c(SCCSc2nnc(-c3cccnc3)n2/N=C\\c2ccccc2O)nnc1-c1cccnc1",
    "units_label": "mm",
    "zone of inhibition at 2500 µg/mL": 0
  },
  {
    "molecular_string": "S=c1[nH]nc(-c2cccnc2)n1/N=C\\c1ccccc1OCCOCCOCCOc1ccccc1/C=N\\n1c(-c2cccnc2)n[nH]c1=S",
    "units_label": "mm",
    "zone of inhibition at 2500 µg/mL": 0
  },
  {
    "molecular_string": "CN(C/C=C/C#CC(C)(C)C)Cc1cccc2ccccc12",
    "units_label": "mm",
    "zone of inhibition at 2500 µg/mL": 10
  },
  {
    "molecular_string": "Nn1c(-c2cccnc2)n[nH]c1=S",
    "units_label": "mm",
    "zone of inhibition at 2500 µg/mL": 0
  },
  {
    "molecular_string": "Nn1c(SCCCSc2nnc(-c3cccnc3)n2N)nnc1-c1cccnc1",
    "units_label": "mm",
    "zone of inhibition at 2500 µg/mL": 1
  },
  {
    "molecular_string": "C1=N\\n2c(nnc2-c2cccnc2)SCCCCSc2nnc(-c3cccnc3)n2/N=C\\c2ccccc2OCCOCCOCCOc2ccccc2/1",
    "units_label": "mm",
    "zone of inhibition at 2500 µg/mL": 0
  },
  {
    "molecular_string": "S=c1[nH]nc(-c2cccnc2)n1/N=C\\c1ccccc1OCCOCCOc1ccccc1/C=N\\n1c(-c2cccnc2)n[nH]c1=S",
    "units_label": "mm",
    "zone of inhibition at 2500 µg/mL": 1
  },
  {
    "molecular_string": "C1=N\\n2c(nnc2-c2cccnc2)SCCCCSc2nnc(-c3cccnc3)n2/N=C\\c2ccccc2OCCCCOc2ccccc2/1",
    "units_label": "mm",
    "zone of inhibition at 2500 µg/mL": 0
  },
  {
    "molecular_string": "OC1COc2ccccc2CNn2c(nnc2-c2cccnc2)SCCCSc2nnc(-c3cccnc3)n2NCc2ccccc2OC1",
    "units_label": "mm",
    "zone of inhibition at 2500 µg/mL": 0
  },
  {
    "molecular_string": "OC1COc2ccccc2/C=N\\n2c(nnc2-c2cccnc2)SCCCCSc2nnc(-c3cccnc3)n2/N=C\\c2ccccc2OC1",
    "units_label": "mm",
    "zone of inhibition at 2500 µg/mL": 0
  },
  {
    "molecular_string": "OC1COc2ccccc2/C=N\\n2c(nnc2-c2cccnc2)SCCCSc2nnc(-c3cccnc3)n2/N=C\\c2ccccc2OC1",
    "units_label": "mm",
    "zone of inhibition at 2500 µg/mL": 0
  },
  {
    "molecular_string": "Nn1c(SCCCCSc2nnc(-c3cccnc3)n2N)nnc1-c1cccnc1",
    "units_label": "mm",
    "zone of inhibition at 2500 µg/mL": 0
  }
]
